# Tested on: Plasmodium berghei
# Assay: Luciferase/luciferin-expressing antifolate-resistant parasites were used to infect a culture of HepG2 cells that were pre-incubated with compounds. Infected hepatocytes emit light due to the luciferase reaction. Assay results are presented as the percent inhibition of light emission compared to control. […]
# Type: functional
# Experimental conditions: sporozoite, FFLUC_HILL_SLOPE 0.47, FFLUC_R_SQUARED 0.912, PBLUC_HILL_SLOPE 0.485, PBLUC_R_SQUARED 0.898, read-out: LUCIFERASE INFECTION ASSAY - IC50
pIC50: −log10 of the molar value.
Observation type: pIC50

[[record]]
molecule_smiles = "Cc1ccnc(NC(=O)c2ccc(C3SCCCS3)cc2)c1"
observation_type = "pIC50"
observed_value = 7.77


====

# System: Plasmodium berghei
# Assay: Luciferase/luciferin-expressing antifolate-resistant parasites were used to infect a culture of HepG2 cells that were pre-incubated with compounds. Infected hepatocytes emit light due to the luciferase reaction. Assay results are presented as the percent inhibition of light emission compared to control. […]
# Type: functional
# Experimental conditions: sporozoite, HEPG2TOX_HILL_SLOPE 0.646, HEPG2TOX_R_SQUARED 0.957, PBLUC_HILL_SLOPE 194, PBLUC_R_SQUARED 0.635, read-out: LUCIFERASE INFECTION ASSAY - IC50
Observation type: IC50 (nM)

[[record]]
molecule_smiles = "Cc1cc(C)n(-c2ccc3c(Cl)cc(Cl)c(O)c3n2)n1"
observation_type = "IC50"
observed_value = 388


====

Known pIC50 of a selection of molecules
# System: Plasmodium berghei
# Assay: Luciferase/luciferin-expressing antifolate-resistant parasites were used to infect a culture of HepG2 cells that were pre-incubated with compounds. Infected hepatocytes emit light due to the luciferase reaction. Assay results are presented as the percent inhibition of light emission compared to control. […]
# Format: functional
# Experimental conditions: sporozoite, read-out: LUCIFERASE INFECTION ASSAY - IC50
pIC50: −log10 of the molar value.
Observation type: pIC50

[[record]]
molecule = "N=C1C(c2nc3ccccc3[nH]2)C(=O)CN1NC(=O)Cn1nnc(-c2cccc(C(F)(F)F)c2)n1 (stereo not given)"
qualifier_symbol = "<"
observed_value = 5.00

[[record]]
molecule = "c1cncc(-c2cn3c(-c4cccs4)cnc3cn2)c1"
qualifier_symbol = "<"
observed_value = 4.92

[[record]]
molecule = "COC(=O)c1sc(NC(=O)COC(=O)C2Cc3ccccc3CN2S(=O)(=O)c2cccs2)c(C(=O)OC)c1C (stereo not given)"
qualifier_symbol = "<"
observed_value = 5.00

[[record]]
molecule = "CCOC(=O)c1c(NC(=O)CN(CC(C)C)C2CC2)sc(C(=O)Nc2ccc(C)cc2C)c1C"
qualifier_symbol = "="
observed_value = 5.37

[[record]]
molecule = "CCOC(=O)c1c(NC(=O)CSc2nnc(N)[nH]2)sc(Br)c1-c1ccccc1"
qualifier_symbol = "="
observed_value = 5.20


====

# System: Plasmodium berghei
# Assay: Luciferase/luciferin-expressing antifolate-resistant parasites were used to infect a culture of HepG2 cells that were pre-incubated with compounds. Infected hepatocytes emit light due to the luciferase reaction. Assay results are presented as the percent inhibition of light emission compared to control. […]
# Assay type: functional
# Experimental conditions: sporozoite, PBLUC_HILL_SLOPE 16.1, PBLUC_R_SQUARED 0.0872, read-out: LUCIFERASE INFECTION ASSAY - IC50
pIC50: −log10 of the molar value.
Observation type: pIC50

[[record]]
molecule_smiles = "c1ccn2c(Sc3ncnc4sccc34)nnc2c1"
observation_type = "pIC50"
observed_value = 5.09

